Target: S1P2 (Homo sapiens, UniProt O95136)
Construct: Flag
Sequence (O95136 whole entry, species assumed): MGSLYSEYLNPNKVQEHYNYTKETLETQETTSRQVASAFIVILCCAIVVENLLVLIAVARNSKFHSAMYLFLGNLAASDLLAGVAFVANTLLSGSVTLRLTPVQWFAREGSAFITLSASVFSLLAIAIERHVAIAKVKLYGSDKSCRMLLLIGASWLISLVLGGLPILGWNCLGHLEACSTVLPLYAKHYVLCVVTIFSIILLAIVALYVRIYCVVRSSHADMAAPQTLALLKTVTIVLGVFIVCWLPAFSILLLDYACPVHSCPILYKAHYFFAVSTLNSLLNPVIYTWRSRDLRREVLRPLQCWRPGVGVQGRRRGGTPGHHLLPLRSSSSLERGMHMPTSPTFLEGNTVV
Test: GLISA RhoA activation - antagonist assay
Settings: CHO-S1P2-FL cells, 1 hour compound incubation, then for 5 min
assay-endpoint: IC50 (nM)

Observe how each entry below is paired with its result.
>>> df
                               input_smiles  assay_endpoint  meas_value
0  C#Cc1ccc(=O)n(CC(=O)c2cc(C)n(Cc3ccccc3)c2C)c1            IC50         134
1  Cc1c(C(=O)Cn2c(F)c(Br)ccc2=O)cnn1Cc1ccccc1            IC50          22
2  Cc1c(C(=O)Cn2cc(C#N)cc(C#N)c2=O)cnn1Cc1ccccc1            IC50          50

P. C#Cc1ccc(=O)n(CC(=O)c2cnn(Cc3ccccc3)c2C)c1
Q. Cc1c(C(=O)Cn2nc(Br)ccc2=O)cnn1Cc1ccccc1
R. Cc1c(C(=O)Cn2cc(Br)ncc2=O)cnn1Cc1ccccc1
Kindly order the items shown according to IC50, from the highest value down. I'd appreciate it if you listed the labels in the requested order. R, Q, P
